test_details: The drug is tested on Z-012 corresponding to metagenome with ENA study accession number: PRJEB37062 and ENA sample accession number: ERS12561812 for biotransformation under anaerobic condition. The drug concentrations were measured over 9 timepoints collected between 0 and 24 hours of incubation by liquid-chromatography-coupled mass spectrometry (LC–MS); note: call rule not given here
conditions: 2 µM
quantity_name: Bacterial Biotransformation

[
  {
    "compound": "COc1ccc2c(c1OC)C(=O)O[C@@H]2[C@H]1c2c(cc3c(c2OC)OCO3)CCN1C",
    "quantity_name": "Bacterial Biotransformation",
    "endpoint_result": "Compound NOT metabolized"
  },
  {
    "compound": "CC(CN(C)C)CN1c2ccccc2CCc2ccccc21.O=C(O)/C=C\\C(=O)O (centres undefined) [TRIMIPRAMINE MALEATE]",
    "quantity_name": "Bacterial Biotransformation",
    "endpoint_result": "Compound metabolized"
  },
  {
    "compound": "CC(O)(CS(=O)(=O)c1ccc(F)cc1)C(=O)Nc1ccc(C#N)c(C(F)(F)F)c1 (centres undefined) [BICALUTAMIDE]",
    "quantity_name": "Bacterial Biotransformation",
    "endpoint_result": "Compound NOT metabolized"
  },
  {
    "compound": "Nc1nc2ccc(OC(F)(F)F)cc2s1",
    "quantity_name": "Bacterial Biotransformation",
    "endpoint_result": "Compound metabolized"
  },
  {
    "compound": "CN(C)CCC=C1c2ccccc2C=Cc2ccccc21",
    "quantity_name": "Bacterial Biotransformation",
    "endpoint_result": "Compound NOT metabolized"
  },
  {
    "compound": "CN(C)C(=O)C(CCN1CCC(O)(c2ccc(Cl)cc2)CC1)(c1ccccc1)c1ccccc1 [LOPERAMIDE]",
    "quantity_name": "Bacterial Biotransformation",
    "endpoint_result": "Compound metabolized"
  }
]

Lab note: CNCCC(Oc1ccc(C(F)(F)F)cc1)c1ccccc1 (centres undefined) gave Bacterial Biotransformation of Compound NOT metabolized

Form field Bacterial Biotransformation, entry Cc1ccc(S(=O)(=O)NC(=O)NN2CC3CCCC3C2)cc1 (centres undefined) [GLICLAZIDE] : Compound metabolized

Lookup result for CN1C(=O)CCS(=O)(=O)C1c1ccc(Cl)cc1 (centres undefined) ; measured Bacterial Biotransformation: Compound NOT metabolized

###

conditions: human gut metagenome, 24 h, 2 µM
quantity_name: Bacterial Biotransformation

Below, 5 compounds whose answers are already recorded.
[
  {
    "compound": "CN(C)CCc1c[nH]c2ccc(Cn3cncn3)cc12.O=C(O)c1ccccc1 [RIZATRIPTAN BENZOATE]",
    "endpoint_result": "Compound NOT metabolized"
  },
  {
    "compound": "CNCCC(Oc1ccc(C(F)(F)F)cc1)c1ccccc1 (configuration not stated)",
    "endpoint_result": "Compound NOT metabolized"
  },
  {
    "compound": "CN1CC(=O)N2[C@H](c3ccc4c(c3)OCO4)c3[nH]c4ccccc4c3C[C@@H]2C1=O",
    "endpoint_result": "Compound NOT metabolized"
  },
  {
    "compound": "O=C1[C@H](CC[C@H](O)c2ccc(F)cc2)[C@@H](c2ccc(O)cc2)N1c1ccc(F)cc1",
    "endpoint_result": "Compound NOT metabolized"
  },
  {
    "compound": "OCCOCCN1CCN(C2=Nc3ccccc3Sc3ccccc32)CC1",
    "endpoint_result": "Compound NOT metabolized"
  }
]

Given item C#C[C@]1(O)CC[C@H]2[C@@H]3CCC4=CC(=O)CC[C@@H]4[C@H]3CC[C@@]21CC , the value recorded as its Bacterial Biotransformation is Compound metabolized

Entry CC(C)(Oc1ccc(CCNC(=O)c2ccc(Cl)cc2)cc1)C(=O)O [BEZAFIBRATE] ; Bacterial Biotransformation = Compound metabolized

Note to self: Bacterial Biotransformation recorded for CCN(CC)CC#CCOC(=O)C(O)(c1ccccc1)C1CCCCC1.Cl (configuration not stated) [OXYBUTYNIN CHLORIDE] was Compound metabolized

compound O=c1[nH]c2ccccc2n1C1CCN(CCCC(c2ccc(F)cc2)c2ccc(F)cc2)CC1 [PIMOZIDE] , Bacterial Biotransformation observed: Compound NOT metabolized

Record summary for CNC(=C[N+](=O)[O-])NCCSCc1ccc(CN(C)C)o1 : reported Bacterial Biotransformation = Compound metabolized

Value of measured Bacterial Biotransformation for the entry CCN(CC)CCNC(=O)c1cc(Cl)c(N)cc1OC [METOCLOPRAMIDE] : Compound NOT metabolized

Just so you know, measured Bacterial Biotransformation for CC(C)(C)NC[C@H](O)COc1ccccc1C1CCCC1.CC(C)(C)NC[C@H](O)COc1ccccc1C1CCCC1.O=S(=O)(O)O [PENBUTOLOL SULFATE] came out at Compound metabolized

The recorded Bacterial Biotransformation for entry CC(C)N(CCC(C(N)=O)(c1ccccc1)c1ccccn1)C(C)C.O=P(O)(O)O (configuration not stated) [DISOPYRAMIDE PHOSPHATE] equals Compound NOT metabolized

Quick note, Bacterial Biotransformation for CCN(CC)CCNC(C(=O)OCCC(C)C)c1ccccc1.Cl.Cl (configuration not stated) landed at Compound NOT metabolized

So for COc1ccc(CCN(C)CCCC(C#N)(c2ccc(OC)c(OC)c2)C(C)C)cc1OC (configuration not stated) , the logged Bacterial Biotransformation turned out to be Compound NOT metabolized

compound CCOC(=O)[C@H](CCc1ccccc1)N[C@@H](C)C(=O)N1[C@H](C(=O)O)C[C@H]2CCCC[C@@H]21 , Bacterial Biotransformation observed: Compound metabolized

Per the record, COc1ccccc1OCC(O)CN1CCN(CC(=O)Nc2c(C)cccc2C)CC1 (configuration not stated) has Bacterial Biotransformation of Compound NOT metabolized
